Target under test: Mot3 (UniProt P54785)
Sequence: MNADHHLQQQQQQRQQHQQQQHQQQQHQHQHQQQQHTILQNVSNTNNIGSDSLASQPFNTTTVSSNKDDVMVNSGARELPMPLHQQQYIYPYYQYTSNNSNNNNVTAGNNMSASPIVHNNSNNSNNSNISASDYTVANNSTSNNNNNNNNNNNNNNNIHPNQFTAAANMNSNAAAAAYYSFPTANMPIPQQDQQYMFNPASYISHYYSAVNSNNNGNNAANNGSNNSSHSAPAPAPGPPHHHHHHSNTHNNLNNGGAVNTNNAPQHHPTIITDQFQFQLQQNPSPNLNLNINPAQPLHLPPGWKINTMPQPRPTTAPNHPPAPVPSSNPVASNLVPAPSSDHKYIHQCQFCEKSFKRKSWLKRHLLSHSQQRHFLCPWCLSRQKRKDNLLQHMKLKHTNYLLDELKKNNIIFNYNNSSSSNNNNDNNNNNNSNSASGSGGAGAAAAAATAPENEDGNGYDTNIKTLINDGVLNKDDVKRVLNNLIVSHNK
Assay procedure: PBM E-score (8-mer binding enrichment) (E-score (-0.5 to 0.5)); higher = stronger / more preferred TF binding
Protocol conditions: protein concentration: 200 nM; construct: GST-full length
Whole data set: some 33,000 sequences, median “E-score (-0.5 to 0.5)” near -0.035, cut for the highest 2% near 0.34. The entries come from a sample that favours the highest values as a whole.
Decision: PBM E-score >= 0.2 yields Condition met, all other cases yield Condition not met.

Request: Identify whether the reported PBM E-score of the following sequence is 0.2 or greater: `CAAGGCCA`
Result: Condition not met

Request: Identify whether the reported PBM E-score of the following sequence is 0.2 or greater: `AAAGGCAT`
Result: Condition met

Request: Identify whether the reported PBM E-score of the following sequence is 0.2 or greater: `ATTGTGTG`
Result: Condition not met

Request: Identify whether the reported PBM E-score of the following sequence is 0.2 or greater: `CTTCACGC`
Result: Condition not met

Request: Identify whether the reported PBM E-score of the following sequence is 0.2 or greater: `CAAGGCAG`
Result: Condition not met

Request: Identify whether the reported PBM E-score of the following sequence is 0.2 or greater: `CATGTGTA`
Result: Condition met
